The reported numbers originate from patent US11918592B2.

Tested on: HCC70 cells
Experiment: Inhibition of cell proliferation, CyQUANT Direct, HCC70
Type: cell-based, human
Settings: Homo sapiens; HCC70 triple negative breast cancer cells, 72-hour; read-out: HCC 70 proliferation calculated IC50
pIC50: −log10 of the molar value.
Exercise: for every item that follows, state its recorded pIC50.

Problem: Report pIC50 for Cc1noc(C)c1-c1ccc2c(-c3nc(N[C@H]4CCC[C@@H]4N4CC(O)C4)ncc3C(F)(F)F)c[nH]c2n1 please.
Result: > 7.00

Problem: Quick one: N#Cc1ccc2c(-c3nc(N[C@H]4CC[C@@H]4N4CCCC4)ncc3C(F)(F)F)c[nH]c2c1
Result: < 5.70

Problem: Quick one: N#Cc1ccc2c(-c3nc(N[C@H]4CN[C@H](CO)C4)ncc3C(F)(F)F)c[nH]c2c1
Result: < 5.70

Problem: Quick one: C[C@H]1C[C@H](Nc2ncc(C(F)(F)F)c(-c3c[nH]c4cc(C#N)ccc34)n2)CN1
Result: 5.70 to 6.30

Problem: Quick one: N#Cc1ccc2c(-c3nc(N[C@H]4CCC[C@@H]4N4CCOCC4)ncc3C(F)(F)F)c[nH]c2c1
Result: < 5.70

Problem: Quick one: Cc1noc(C)c1-c1ccc2c(-c3nc(N[C@H]4C[C@H]5CC[N@](CC5)C4)ncc3C(F)(F)F)c[nH]c2n1
Result: > 7.00

Problem: Quick one: CCO[C@@H]1CNC[C@H]1Nc1ncc(C(F)(F)F)c(-c2c[nH]c3cc(C#N)ccc23)n1 (relative stereo)
Result: < 5.70

* * *

Test system: COV318 cells
Test: Inhibition of cell proliferation, CyQUANT Direct, COV318
Format: cell-based
Conditions: Homo sapiens; COV318 ovarian cancer cells, 72-hour; read-out: COV 318 proliferation calculated IC50
reported metric: IC50

Problem: Report IC50 for Cc1noc(C)c1-c1ccc2c(-c3nc(N[C@H]4CCC[C@H]4N4CC(F)C4)ncc3C(F)(F)F)c[nH]c2n1 please.
Result: > 2000 nM

Problem: Quick one: Cc1noc(C)c1-c1ccc2c(-c3nc(N[C@H]4CC[C@@H]4N)ncc3C(F)(F)F)c[nH]c2c1
Result: 100 to 500 nM

Problem: Quick one: Cc1noc(C)c1-c1ccc2c(-c3nc(NC4CC[C@@H]4N4CCCC4)ncc3C(F)(F)F)c[nH]c2n1 (stereo in doubt)
Result: > 2000 nM

Problem: Quick one: COCCNC1CCC[C@@H]1Nc1ncc(C(F)(F)F)c(-c2c[nH]c3nc(-c4c(C)noc4C)ccc23)n1 (stereo in doubt)
Result: 500 to 2000 nM

Problem: Quick one: N#Cc1ccc2c(-c3nc(N[C@H]4CCCC[C@@H]4N)ncc3C(F)(F)F)c[nH]c2c1
Result: > 2000 nM

Problem: Quick one: Cc1noc(C)c1-c1ccc2c(-c3nc(N[C@H]4CCC[C@@H]4N4CC(F)C4)ncc3C(F)(F)F)c[nH]c2n1
Result: > 2000 nM

Problem: Quick one: CN(C)[C@H]1CC[C@@H]1Nc1ncc(C(F)(F)F)c(-c2c[nH]c3cc(C#N)ccc23)n1
Result: > 2000 nM

Problem: Quick one: Cc1noc(C)c1-c1ccc2c(-c3nc(N[C@H]4CCC[C@H]4N4CC(O)C4)ncc3C(F)(F)F)c[nH]c2n1
Result: > 2000 nM

Problem: Quick one: Cc1noc(C)c1-c1ccc2c(-c3nc(N[C@H]4CCC[C@@H]4N)ncc3C(F)(F)F)n[nH]c2n1
Result: 100 to 500 nM

Problem: Quick one: Cc1noc(C)c1-c1ccc2c(-c3nc(N[C@@H]4C[C@@H]5CC[C@H]4N5)ncc3C(F)(F)F)c[nH]c2n1
Result: < 100 nM

Problem: Quick one: N#Cc1ccc2c(-c3nc(N[C@@H]4C[C@@H]5CC[C@H]4N5)ncc3C(F)(F)F)c[nH]c2c1
Result: 500 to 2000 nM

Problem: Quick one: Cc1noc(C)c1-c1ccc2c(-c3nc(N[C@H]4CCC[C@@H]4N4CCCC4)ncc3C(F)(F)F)c[nH]c2c1
Result: 500 to 2000 nM

Problem: Quick one: CP(C)(=O)c1c(C#N)ccc2c(-c3nc(N[C@H]4CCC[C@@H]4N)ncc3C(F)(F)F)c[nH]c12
Result: 100 to 500 nM

Problem: Quick one: N#Cc1ccc2c(-c3nc(N[C@H]4Cc5ccccc5[C@@H]4N)ncc3C(F)(F)F)c[nH]c2c1
Result: > 2000 nM
